# experimental system: (p)Hsp90-(p)p50^Cdc37 (Homo sapiens)
# Sequence (P08238 whole entry): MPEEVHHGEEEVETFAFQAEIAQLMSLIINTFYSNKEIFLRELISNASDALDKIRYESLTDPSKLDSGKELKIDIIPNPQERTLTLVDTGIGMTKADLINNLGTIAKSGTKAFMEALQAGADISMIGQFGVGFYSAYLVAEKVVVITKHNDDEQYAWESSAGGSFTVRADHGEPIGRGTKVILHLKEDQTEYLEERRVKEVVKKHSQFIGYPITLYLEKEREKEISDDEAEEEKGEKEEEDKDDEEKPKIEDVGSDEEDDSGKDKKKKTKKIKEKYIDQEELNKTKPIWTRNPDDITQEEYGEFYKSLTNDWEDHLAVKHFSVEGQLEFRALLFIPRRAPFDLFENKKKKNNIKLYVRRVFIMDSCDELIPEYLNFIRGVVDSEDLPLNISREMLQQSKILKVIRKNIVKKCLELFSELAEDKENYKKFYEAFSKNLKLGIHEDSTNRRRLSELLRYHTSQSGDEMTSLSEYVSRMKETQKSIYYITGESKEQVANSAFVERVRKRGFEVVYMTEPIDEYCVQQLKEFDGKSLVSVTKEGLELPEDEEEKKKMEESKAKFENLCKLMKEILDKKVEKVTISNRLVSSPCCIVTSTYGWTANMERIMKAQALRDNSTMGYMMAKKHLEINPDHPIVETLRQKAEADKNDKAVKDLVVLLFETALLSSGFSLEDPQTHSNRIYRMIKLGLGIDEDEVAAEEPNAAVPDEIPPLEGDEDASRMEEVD
# assay remarks: biochemical
pIC50: −log10 of the molar value.
quantity: pIC50

stdin: Requested field: pIC50. Item: CC(=O)O[C@@H]1C[C@H]2C(C)(C)C(=O)C=C[C@]2(C)[C@H]2CC[C@@]3(C)[C@H](c4ccoc4)OC(=O)[C@H]4O[C@]43[C@@]21C [Gedunin]
stdout: < 3.00

====

# experimental system: hΔHsp90β (Homo sapiens, UniProt P08238, DEL220-271/E274G/I272G/K273G/K275G)
# Construct: human Hsp90β (1-724 Δ220-275); His6 (N)
# Sequence (P08238 with tags, fused parts or gaps DEL220-271/I272G/K273G/E274G/K275G): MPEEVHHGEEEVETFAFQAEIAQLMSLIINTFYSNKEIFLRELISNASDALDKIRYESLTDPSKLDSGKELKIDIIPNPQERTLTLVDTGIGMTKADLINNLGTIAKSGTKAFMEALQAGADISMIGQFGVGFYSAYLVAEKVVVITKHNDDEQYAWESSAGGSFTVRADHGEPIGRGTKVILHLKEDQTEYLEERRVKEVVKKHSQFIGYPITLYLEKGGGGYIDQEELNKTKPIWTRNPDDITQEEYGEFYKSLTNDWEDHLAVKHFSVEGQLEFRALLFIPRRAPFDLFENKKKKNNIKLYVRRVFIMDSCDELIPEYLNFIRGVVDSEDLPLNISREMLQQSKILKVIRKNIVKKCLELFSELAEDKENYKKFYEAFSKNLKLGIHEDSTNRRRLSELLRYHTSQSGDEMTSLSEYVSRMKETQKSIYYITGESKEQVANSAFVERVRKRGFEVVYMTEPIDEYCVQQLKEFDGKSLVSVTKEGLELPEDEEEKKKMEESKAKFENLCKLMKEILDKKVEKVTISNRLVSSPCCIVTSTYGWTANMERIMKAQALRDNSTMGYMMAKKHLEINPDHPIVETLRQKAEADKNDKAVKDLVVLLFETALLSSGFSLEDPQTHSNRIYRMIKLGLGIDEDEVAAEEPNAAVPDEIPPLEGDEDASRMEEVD
# assay remarks: ITC direct binding to Hsp90β deletion mutant lacking the charged linker
# condition description: 50 mM HEPES pH 7.5, 10 mM MgCl2, 30 °C, read-out: Observed Kd
# key: entry, value: Kd
Please format your answer as a value with the unit trailing.

[[record]]
compound = "Nc1ncnc2c1ncn2[C@@H]1O[C@H](COP(=O)(O)OP(=O)(O)NP(=O)(O)O)[C@@H](O)[C@H]1O [AMP-PNP]"
measured_value = "84 µM"

[[record]]
compound = "Nc1ncnc2c1ncn2[C@@H]1O[C@H](COP(=O)(O)OP(=O)(O)OP(=O)(O)O)[C@@H](O)[C@H]1O [ATP]"
measured_value = "43 µM"


Now turn to the next compound.
stdin: Recorded Kd for Nc1ncnc2c1ncn2[C@@H]1O[C@H](COP(=O)(O)OP(=O)(O)O)[C@@H](O)[C@H]1O [ADP] , please?
stdout: 11 µM

Reference source: paper PMC4601640
